# credit: PubChem BioAssay (NCI)

System: SR leukemia
Assay: NCI tumour cell line growth inhibition, 48 h
attribute-measured: TGI

Item `N#Cc1ccc2[nH]cc(Cc3c[nH]c4ccc(C#N)cc34)c2c1` : provide TGI
36.7 µM

Item `CC[C@H](C)[C@H](NC(=O)c1ncccn1)C(=O)N(C)[C@H](C[C@@H](OC(C)=O)c1nc(C(=O)N[C@@H](Cc2ccccc2)C[C@H](C)C(=O)OC)cs1)C(C)C` : provide TGI
> 25 µM

Item `COc1ccc(OC)c(-c2cc(-c3ccc(Cl)cc3)nn2-c2ccccc2)c1` : provide TGI
> 100 µM

Item [N-]=[N+]=C1C(=O)C2CC3CC1CC2C3 (configuration not stated) : provide TGI
> 100 µM

Item `CC1(C)N=C(N)N=C(N)N1c1cccc(CCCCc2ccc(Cl)c(S(=O)(=O)F)c2)c1` : provide TGI
16.8 µM

Item Cc1cn(CCCCOC(=O)NC(CCCN=C(N)N)C(=O)O)c(=O)[nH]c1=O (configuration not stated) : provide TGI
> 100 µM

Item `N=C1c2ccccc2C(=O)c2c(NCCNCCO)ccc(O)c21` : provide TGI
5.32 µM

Item `COC(=O)CCCCCOS(=O)(=O)c1ccc(C)cc1` : provide TGI
> 100 µM

Item Cc1cc(OP2(=O)NCc3ccncc3O2)ccc1Cl (configuration not stated) : provide TGI
> 100 µM

Item CCCC(=O)Nc1cc(/C=C/C(=O)N2CC(CCl)c3ccc([N+](=O)[O-])cc32)n(C)c1 (configuration not stated) : provide TGI
> 100 µM

Item `CCCNC(=O)Cn1c2c(c3ccccc31)CCCC2` : provide TGI
> 100 µM

Item `NC(=O)c1ccc(I)c([N+](=O)[O-])c1` : provide TGI
> 100 µM
